Numbers sourced from the supplement of paper PMC11246515.

Method Notes: total protein half-life in vivo (active degradation + dilution); higher = more stable protein
Condition Info: E. coli NCM3722 delta-clpP; growth: N-lim chemostat; doubling time 6 h

{"Residue Codes": "MDSFPAIEIDKVKAWDFRLANINTSECLNVAYGVDANYLDGVGVSITSIVLNNRHINLDFYIIADVYNDGFFQKIAKLAEQNQLRITLYRINTDKLQCLPCTQVWSRAMYFRLFAFQLLGLTLDRLLYLDADVVCKGDISQLLHLGLNGAVAAVVKDVEPMQEKAVSRLSDPELLGQYFNSGVVYLDLKKWADAKLTEKALSILMSKDNVYKYPDQDVMNVLLKGMTLFLPREYNTIYTIKSELKDKTHQNYKKLITESTLLIHYTGATKPWHKWAIYPSVKYYKIALENSPWKDDSPRDAKSIIEFKKRYKHLLVQHHYISGIIAGVCYLCRKYYRK", "total protein half-life in vivo": "5.65 h"}
{"Residue Codes": "MSTTWFVGADWLAEHIDDPEIQIIDARMASPGQEDRNVAQEYLNGHIPGAVFFDIEALSDHTSPLPHMLPRPETFAVAMRELGVNQDKHLIVYDEGNLFSAPRAWWMLRTFGVEKVSILGGGLAGWQRDDLLLEEGAVELPEGEFNAAFNPEAVVKVTDVLLASHENTAQIIDARPAARFNAEVDEPRPGLRRGHIPGALNVPWTELVREGELKTTDELDAIFFGRGVSYDKPIIVSCGSGVTAAVVLLALATLDVPNVKLYDGAWSEWGARADLPVEPVK", "total protein half-life in vivo": "3.98 h"}
{"Residue Codes": "MLELNFSQTLGNHCLTINETLPANGITAIFGVSGAGKTSLINAISGLTRPQKGRIVLNGRVLNDAEKGICLTPEKRRVGYVFQDARLFPHYKVRGNLRYGMSKSMVDQFDKLVALLGIEPLLDRLPGSLSGGEKQRVAIGRALLTAPELLLLDEPLASLDIPRKRELLPYLQRLTREINIPMLYVSHSLDEILHLADRVMVLENGQVKAFGALEEVWGSSVMNPWLPKEQQSSILKVTVLEHHPHYAMTALALGDQHLWVNKLDEPLQAALRIRIQASDVSLVLQPPQQTSIRNVLRAKVVNSYDDNGQVEVELEVGGKTLWARISPWARDELAIKPGLWLYAQIKSVSITA", "total protein half-life in vivo": "6.32 h"}
{"Residue Codes": "MERFDAIIIGAGAAGMFCSALAGQAGRRVLLIDNGKKPGRKILMSGGGRCNFTNLYVEPGAYLSQNPHFCKSALARFTQWDFIDLVNKHGIAWHEKTLGQLFCDDSAQQIVDMLVDECEKGNVTFRLRSEVLSVAKDETGFTLDLNGMTVGCEKLVIATGGLSMPGLGASPFGYKIAEQFGLNVLPTRAGLVPFTLHKPLLEELQVLAGVAVPSVITAENGTVFRENLLFTHRGLSGPAVLQISSYWQPGEFVSINLLPDVDLETFLNEQRNAHPNQSLKNTLAVHLPKRLVERLQQLGQIPDVSLKQLNVRDQQALISTLTDWRVQPNGTEGYRTAEVTLGGVDTNELSSRTMEARKVPGLYFIGEVMDVTGWLGGYNFQWAWSSAWACAQDLIAAKSS", "total protein half-life in vivo": "5.67 h"}
{"Residue Codes": "MARTKLKFRLHRAVIVLFCLALLVALMQGASWFSQNHQRQRNPQLEELARTLARQVTLNVAPLMRTDSPDEKRIQAILDQLTDESRILDAGVYDEQGDLIARSGESVEVRDRLALDGKKAGGYFNQQIVEPIAGKNGPLGYLRLTLDTHTLATEAQQVDNTTNILRLMLLLSLAIGVVLTRTLLQGKRTRWQQSPFLLTASKPVPEEEESEKKE [P0AGC7]", "total protein half-life in vivo": "4.93 h"}
{"Residue Codes": "MRIFVYGSLRHKQGNSHWMTNAQLLGDFSIDNYQLYSLGHYPGAVPGNGTVHGEVYRIDNATLAELDALRTRGGEYARQLIQTPYGSAWMYVYQRPVDGLKLIESGDWLDRDK [P0AE48]", "total protein half-life in vivo": "4.63 h"}
{"Residue Codes": "METKNLTIGERIRYRRKNLKHTQRSLAKALKISHVSVSQWERGDSEPTGKNLFALSKVLQCSPTWILFGDEDKQPTPPVEKPVALSPKELELLELFNALPESEQDTQLAEMRARVKNFNKLFEELLKARQRTNKR", "total protein half-life in vivo": "5.32 h"}
{"Residue Codes": "MKKIAAISLISIFIMSGCAVHNDETSIGKFGLAYKSNIQRKLDNQYYTEAEASLARGRISGAENIVKNDATHFCVTQGKKMQIVELKTEGVGLHGVARLTFKCGE", "total protein half-life in vivo": "5.75 h"}
{"Residue Codes": "MEALGMIETRGLVALIEASDAMVKAARVKLVGVKQIGGGLCTAMVRGDVAACKAATDAGAAAAQRIGELVSVHVIPRPHGDLEEVFPIGLKGDSSNL [P0ABF4]", "total protein half-life in vivo": "7.77 h"}
{"Residue Codes": "MSKLDLNALNELPKVDRILALAETNAELEKLDAEGRVAWALDNLPGEYVLSSSFGIQAAVSLHLVNQIRPDIPVILTDTGYLFPETYRFIDELTDKLKLNLKVYRATESAAWQEARYGKLWEQGVEGIEKYNDINKVEPMNRALKELNAQTWFAGLRREQSGSRANLPVLAIQRGVFKVLPIIDWDNRTIYQYLQKHGLKYHPLWDEGYLSVGDTHTTRKWEPGMAEEETRFFGLKRECGLHEG", "total protein half-life in vivo": "4.21 h"}
{"Residue Codes": "MAGINLNKKLWRIPQQGMVRGVCAGIANYFDVPVKLVRILVVLSIFFGLALFTLVAYIILSFALDPMPDNMAFGEQLPSSSELLDEVDRELAASETRLREMERYVTSDTFTLRSRFRQL [P0AFN2]", "total protein half-life in vivo": "> 8 h"}
{"Residue Codes": "MIKSALLVLEDGTQFHGRAIGATGSAVGEVVFNTSMTGYQEILTDPSYSRQIVTLTYPHIGNVGTNDADEESSQVHAQGLVIRDLPLIASNFRNTEDLSSYLKRHNIVAIADIDTRKLTRLLREKGAQNGCIIAGDNPDAALALEKARAFPGLNGMDLAKEVTTAEAYSWTQGSWTLTGGLPEAKKEDELPFHVVAYDFGAKRNILRMLVDRGCRLTIVPAQTSAEDVLKMNPDGIFLSNGPGDPAPCDYAITAIQKFLETDIPVFGICLGHQLLALASGAKTVKMKFGHHGGNHPVKDVEKNVVMITAQNHGFAVDEATLPANLRVTHKSLFDGTLQGIHRTDKPAFSFQGHPEASPGPHDAAPLFDHFIELIEQYRKTAK [P0A6F1]", "total protein half-life in vivo": "4.51 h"}
